Reference for the values: patent US6525001B1

# Test system: velvetleaf (Abutilon theophrasti)
# Assay Overview: Test B pre-/postemergence
# Format: in vivo
# Test Settings: Rate 125 g/ha, Preemergence
Recorded Endpoint: Velvetleaf plant response rating
# output: bare number, no unit

Example cases with answers are listed next.
{"Compound": "Cc1cnc(-c2ccc(C(F)(F)F)cc2)nc1Cn1cc(I)cn1 [Compound 12]", "Velvetleaf plant response rating": 4}
{"Compound": "Cc1cnc(-c2ccc(C(F)(F)F)cc2)nc1Cn1cnc(C(F)(F)F)n1 [Compound 11]", "Velvetleaf plant response rating": 6}
{"Compound": "CCc1cnc(-c2ccc(C(F)(F)F)cc2)nc1Cc1cccc(C(F)(F)F)c1 [Compound 22]", "Velvetleaf plant response rating": 8}
{"Compound": "COC(=O)C(c1cccc(C(F)(F)F)c1)c1nc(-c2ccc(C(F)(F)F)cc2)ncc1C (racemic) [Compound 18]", "Velvetleaf plant response rating": 0}

Note: attention shifts to another entry.
Request: Query: Velvetleaf plant response rating; subject: Cc1cnc(-c2ccc(C(F)(F)F)cc2)nc1Cn1cnc(C(F)(F)F)c1 [Compound 10]
Result: 7
